# maps each entry to its EC50
- TARGET_UNDER_TEST: human CB2R (Homo sapiens, UniProt P34972)
- Construct: host or cells: CHO cells
- Sequence (P34972 whole entry): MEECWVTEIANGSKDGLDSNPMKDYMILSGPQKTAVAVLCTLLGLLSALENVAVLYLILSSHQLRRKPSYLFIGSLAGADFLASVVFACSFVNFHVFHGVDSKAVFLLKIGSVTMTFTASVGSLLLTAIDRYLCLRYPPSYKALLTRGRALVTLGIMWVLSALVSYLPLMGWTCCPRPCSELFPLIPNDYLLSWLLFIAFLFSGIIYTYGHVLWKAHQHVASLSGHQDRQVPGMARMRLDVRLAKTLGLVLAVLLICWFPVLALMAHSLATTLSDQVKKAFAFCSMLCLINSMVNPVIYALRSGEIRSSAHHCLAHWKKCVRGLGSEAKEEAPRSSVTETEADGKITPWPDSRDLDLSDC
- PROCEDURE_DETAILS: CB2R mediated modulation of cAMP synthesis
- Assay type: cell-based
Numbers only here, please. The scale is nM.

- CC(C)(NC1CC1)C(=O)Nc1cc(C(C)(C)C)on1: 235
- CC(C)(OCC1CCOCC1)C(=O)Nc1cc(C(C)(C)C)on1: 50
- CC(C)N(C)C(C)(C)C(=O)Nc1cc(C(C)(C)C)on1: 8.4
- CC(C)(C)c1cc(NC(=O)C(C)(C)N2CCC(F)(F)CC2)no1: 24
- CC(C)(OCC1CCOCC1)C(=O)Nc1cc(C(C)(C)C)no1: 8.1

input: Consider the molecule CC(C)(C)c1cc(NC(=O)C(C)(C)N2CCC3(CCCCC3)C2)on1 and give its recorded EC50.
output: 0.45

input: Report EC50, nothing else, for this molecule: CN(C(C)(C)C(=O)Nc1cc(C(C)(C)C)on1)S(=O)(=O)c1ccc(Cl)cc1
output: 0.36

input: Answer with the recorded EC50 for the molecule listed here: CC1CCCCN1C(C)(C)C(=O)Nc1cc(C(C)(C)C)on1 (centres unmarked)
output: 1.2

input: Note EC50 for the molecule shown: CC(C)(NCC1CCOCC1)C(=O)Nc1cc(C(C)(C)C)no1
output: 14

input: Output measured EC50 for this item: CC(C)(OC1CCOCC1)C(=O)Nc1nc(-c2ccccc2)n[nH]1
output: 235

---

- TARGET_UNDER_TEST: human CB2R (Homo sapiens, UniProt P34972)
- Construct: host or cells: CHO cells
- PROCEDURE_DETAILS: CB2R mediated modulation of cAMP synthesis
- Assay type: cell-based
REPORTED_ENDPOINT: EC50 (nM)
Form entry: value (nM) — number only.

• CC(C)(C)c1cc(NC(=O)C(C)(C)N2CCCCC2)no1 = 0.55

input: Please look at this compound and report its EC50: CC(C)(NCC1CCOCC1)C(=O)Nc1nc(-c2ccccc2)n[nH]1
output: 98

input: Give a short answer stating reported EC50 for CC(C)(OC1CCOCC1)C(=O)Nc1cc(C(C)(C)C)no1 .
output: 107

---

- TARGET_UNDER_TEST: human CB2R (Homo sapiens, UniProt P34972)
- Construct: host or cells: CHO cells
- PROCEDURE_DETAILS: CB2R mediated modulation of cAMP synthesis
- Format: cell-based
pEC50: −log10 of the molar value.
Would you please tag the item 1.0 when its pEC50 is 8 or above, and 0.0 when it is below?

Observe how each entry below is paired with its result.
• CCCCNC(C)(C)C(=O)Nc1cc(C(C)(C)C)on1 [Example 17] = 0.0
• CC1CCCN(C(C)(C)C(=O)Nc2cc(C(C)(C)C)on2)C1 (stereo not shown) [Example 19] = 1.0
• CC(C)(C)c1cc(NC(=O)C(C)(C)N2CCCC2)no1 [Example 27] = 0.0
• CC(C)(NC1CCOCC1)C(=O)Nc1cc(C(C)(C)C)on1 [Example 40] = 0.0
• CC(C)(OCC1CCOCC1)C(=O)Nc1nc(-c2ccccc2)n[nH]1 [Example 6] = 0.0

input: I'd appreciate it if you could say whether CN(C(=O)N1CCS(=O)(=O)CC1)C(C)(C)C(=O)Nc1cc(C(C)(C)C)on1 [Example 51] has pEC50 at least equal to 8.
output: 0.0

input: Test whether the compound CC(C)(C(=O)Nc1ccc(C(F)(F)F)cn1)N1CCCCC1 [Example 32] records pEC50 of 8 or higher.
output: 0.0

input: Does the reported pEC50 for COC1CCN(C(C)(C)C(=O)Nc2cc(C(C)(C)C)on2)CC1 [Example 25] fall at or above the 8 mark?
output: 1.0

input: Decide: is the reported value of pEC50 for CC(C)(C)c1cc(NC(=O)C(C)(C)n2ccc3cc(Cl)ccc32)no1 [Example 35] equal to or greater than 8?
output: 1.0

input: Hi team, for CC(C)(NCC1CCOCC1)C(=O)Nc1cc(C(C)(C)C)on1 [Example 38] , is the recorded pEC50 at or above 8?
output: 0.0

---

- TARGET_UNDER_TEST: human CB2R (Homo sapiens, UniProt P34972)
- Construct: host or cells: CHO cells
- PROCEDURE_DETAILS: CB2R mediated modulation of cAMP synthesis
- Type: cell-based
- Method: B. CB2R Mediated Modulation of cAMP Synthesis: Compounds of the invention were evaluated for their CB2 agonist or inverse agonistic activity in accordance with the following experimental method. CHO cells expressing human CB2R (Euroscreen) were plated at a density of 5000 cells per well in 384 well plates and incubated overnight at 37° C. […] Cells were lysed and the cAMP concentration was measured using DiscoverX-XS cAMP kit, following the manufacturer's protocol. […]
pEC50: −log10 of the molar value.
Give fulfilled when the value for pEC50 is at least 8. Give not fulfilled when it is less.

Example entries begin here.
* CC1CCCN1C(C)(C)C(=O)Nc1cc(C(C)(C)C)on1 (stereo not drawn) | not fulfilled
* CC(C)(Nc1ccc(C(F)(F)F)cc1)C(=O)Nc1cc(C(C)(C)C)no1 | fulfilled
* CN(C(C)(C)C(=O)Nc1cc(C(C)(C)C)on1)S(=O)(=O)c1ccc(F)cc1 | fulfilled
* CN(C(=O)c1ccc(Cl)cc1)C(C)(C)C(=O)Nc1cc(C(C)(C)C)on1 | not fulfilled
* CC(C)(NC1CCOCC1)C(=O)Nc1nc(-c2ccccc2)n[nH]1 | not fulfilled

input: Textbook exercise: given the entry CCC(C)NC(C)(C)C(=O)Nc1cc(C(C)(C)C)on1 (stereo not drawn) , state whether its pEC50 is greater than or equal to 8.
output: not fulfilled

input: Please tell me: is the compound CC(C)(Oc1ccc(Cl)cc1)C(=O)Nc1cc(C(C)(C)C)on1 at or over 8 in terms of pEC50?
output: fulfilled

input: Kindly determine if pEC50 recorded for CC(C)(Oc1ccc(C(F)(F)F)cn1)C(=O)Nc1cc(C(C)(C)C)no1 is above or exactly 8.
output: fulfilled

input: Kindly determine if pEC50 recorded for CC1CCN(C(C)(C)C(=O)Nc2cc(C(C)(C)C)on2)CC1 is above or exactly 8.
output: fulfilled

input: Determine whether this compound has pEC50 no lower than 8: CC(C)(C)c1cc(NC(=O)C(C)(C)N2CCOCC2)no1
output: not fulfilled

input: Determine whether this compound has pEC50 no lower than 8: CC(C)NC(C)(C)C(=O)Nc1cc(C(C)(C)C)on1
output: not fulfilled

input: Entry CC(C)(Nc1ccc(C(F)(F)F)cn1)C(=O)Nc1cc(C(C)(C)C)no1 : is its pEC50 no less than 8?
output: fulfilled

input: Reported pEC50 at or above 8? CC(C)(OC1CCOCC1)C(=O)Nc1cc(C(C)(C)C)on1
output: not fulfilled

input: Answer whether pEC50 of CC(C)(Nc1ccc(C(F)(F)F)cn1)C(=O)Nc1cc(C(C)(C)C)on1 is greater than or equal to 8.
output: not fulfilled

input: Is it the case that CC(C)(NC1CCOCC1)C(=O)Nc1cc(C(C)(C)C)no1 has pEC50 reaching or exceeding 8?
output: not fulfilled

---

Recorded pEC50 for the following molecules
- TARGET_UNDER_TEST: human CB2R (Homo sapiens, UniProt P34972)
- Construct: host or cells: CHO cells
- PROCEDURE_DETAILS: CB2R mediated modulation of cAMP synthesis
- Assay type: cell-based
// field semantics: pEC50 = negative decimal log of concentration (mol/L)

Examples with answers:
• COc1ccc(NC(C)(C)C(=O)Nc2cc(C(C)(C)C)on2)cc1 [Example 9] = 8.06
• CC(C)(NC1CCCCC1)C(=O)Nc1cc(C(C)(C)C)on1 [Example 14] = 8.02

Query molecule follows.
input: Name the value of pEC50 reported for CC(C)(C)c1cc(NC(=O)C(C)(C)N2CCSCC2)no1 [Example 22] when tested on human CB2R (Homo sapiens, UniProt P34972).
output: 8.00
